target: Ac-VQIINK-NH2 (SEQ ID NO: 23) (N-terminal acetyl (Ac); C-terminal amide (NH2)); assay: cell-based or functional assay
Square brackets hold non-standard residues; d marks the D form. Ends that are not written are not given here.
Listing of entries alongside the reported VQIINK Inhibition IC50.
Quick reminder: number only, in µm, skip the unit.

For orientation, consider the following solved cases.
Enquiry: Kindly indicate its recorded VQIINK Inhibition IC50. Item: [dM][dR][dL][dK][dV][dR][dW] [mrlkvrw]
Return: 5.67

Enquiry: Tell me VQIINK Inhibition IC50 reported for [dW][dR][dL][dK][dV][dR][dW][dL] [wrlkvrwl]
Return: 1.37

Enquiry: // Input: [dL][dE][dI][dR][dI][dH][dY] [leirihy] . Output its VQIINK Inhibition IC50 only.
Return: 0.77

// next entry
Enquiry: Identify the reported VQIINK Inhibition IC50 for the following entry. [dW][dR][dL][dK][dH][dR][dW] [wrlkhrw]
Return: 13.5
